# study_target: T1, GRB2 (growth factor receptor-bound protein 2), wild-type, full-length, bacterially expressed and purified (UniProt P62993 1-217, Atto488 label where used as the labelled partner in MST)
# T1 construct: domain: full-length; also called WTGRB2; non-ubiquitinated GRB2
# T1 sequence (P62993 whole entry): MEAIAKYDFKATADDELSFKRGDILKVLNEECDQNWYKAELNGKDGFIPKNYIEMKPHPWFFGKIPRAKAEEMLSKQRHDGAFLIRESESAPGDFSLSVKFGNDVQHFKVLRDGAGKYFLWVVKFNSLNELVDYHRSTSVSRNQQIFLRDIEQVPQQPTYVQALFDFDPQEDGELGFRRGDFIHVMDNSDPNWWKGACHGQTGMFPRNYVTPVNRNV
# method_description: MST with the Y111 phosphorylated MRE11 peptide
pKd: −log10 of the molar value. Where no end group is shown, it is not given here. [ ]: non-standard residue; d: D form. pY = N[C@@H](Cc1ccc(OP(=O)(O)O)cc1)C(=O)O

binder	pKd
WVN[pY]QDGNLN (not fully specified, also called Y111 phosphorylated MRE11 peptide; tyrosine phosphorylated peptide) [Tyrosine-phosphorylated MRE11 peptide WVNpYQDGNLN]	4.71

These entries and their values trace back to patent US20230366033A1.
